# Study System: canine TRPM8 (Canis lupus familiaris, UniProt Q1A7N1)
# Construct: expressed in transfected cells
# Sequence (Q1A7N1 1-1104): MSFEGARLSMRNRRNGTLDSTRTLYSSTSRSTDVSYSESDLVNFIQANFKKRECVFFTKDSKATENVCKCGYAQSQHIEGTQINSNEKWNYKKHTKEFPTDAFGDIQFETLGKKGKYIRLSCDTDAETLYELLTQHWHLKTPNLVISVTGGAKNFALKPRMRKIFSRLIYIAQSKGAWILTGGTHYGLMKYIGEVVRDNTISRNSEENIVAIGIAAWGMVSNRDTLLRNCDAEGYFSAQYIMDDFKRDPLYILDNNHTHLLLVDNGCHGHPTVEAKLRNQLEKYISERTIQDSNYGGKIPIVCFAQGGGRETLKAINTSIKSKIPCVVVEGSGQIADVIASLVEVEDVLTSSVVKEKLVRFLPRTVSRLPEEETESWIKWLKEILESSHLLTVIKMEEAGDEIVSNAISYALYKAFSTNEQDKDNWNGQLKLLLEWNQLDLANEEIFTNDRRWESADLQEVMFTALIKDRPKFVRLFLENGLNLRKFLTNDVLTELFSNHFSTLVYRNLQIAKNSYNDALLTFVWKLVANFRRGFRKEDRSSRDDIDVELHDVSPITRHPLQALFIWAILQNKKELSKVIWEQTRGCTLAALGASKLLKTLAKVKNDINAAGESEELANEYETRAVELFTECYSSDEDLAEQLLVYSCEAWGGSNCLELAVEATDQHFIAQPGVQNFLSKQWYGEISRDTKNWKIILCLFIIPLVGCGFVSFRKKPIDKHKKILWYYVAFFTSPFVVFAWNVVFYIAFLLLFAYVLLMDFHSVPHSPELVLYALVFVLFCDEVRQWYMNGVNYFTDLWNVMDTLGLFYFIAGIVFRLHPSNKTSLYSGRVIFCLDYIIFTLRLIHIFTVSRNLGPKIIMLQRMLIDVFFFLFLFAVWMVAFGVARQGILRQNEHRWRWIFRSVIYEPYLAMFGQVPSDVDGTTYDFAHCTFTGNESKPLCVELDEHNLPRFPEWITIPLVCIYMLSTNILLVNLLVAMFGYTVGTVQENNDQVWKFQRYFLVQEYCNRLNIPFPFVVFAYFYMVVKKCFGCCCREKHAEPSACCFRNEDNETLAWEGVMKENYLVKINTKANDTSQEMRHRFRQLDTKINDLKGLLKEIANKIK
# Method Notes: In Vitro Canine TRPM8 Functional Assay (icilin-induced intracellular Ca2+, FLIPR/FDSS)
# Type: cell-based
# Condition Label: HEK293, 0.2 μM compound; HEK293 cells stably expressing canine TRPM8; icilin activation; read-out: % Inh @ 0.2 μM
Reported Metric: inhibition at 0.2 µM
A complete answer gives the number and then names the unit.

Could you tell me inhibition at 0.2 µM for each of these molecules? They are listed below.
1. Cn1c(N(Cc2ccc(F)c(C(F)(F)F)c2)S(=O)(=O)c2cccc(Cl)c2)nc2ccccc21 [compound 14]
2. CCn1c(N(Cc2ccc(C(F)(F)F)c(F)c2)S(=O)(=O)c2ccccc2)nc2ccccc21 [compound 34]
3. CC(C)n1c(N(Cc2ccc(OC(F)(F)F)cc2)S(=O)(=O)c2ccccc2)nc2cc(Cl)ccc21 [compound 61]
4. Cn1c(N(Cc2ccc(OC(F)(F)F)cc2)S(=O)(=O)c2ccc(F)cc2)nc2ccccc21 [compound 32]

Result:
97%
102%
96%
94%

----------
# Study System: canine TRPM8 (Canis lupus familiaris)
# Construct: expressed in transfected cells
# Method Notes: In Vitro Canine TRPM8 Functional Assay (icilin-induced intracellular Ca2+, FLIPR/FDSS)
# Format: cell-based
# Condition Label: re-test; 10 mM stock diluted with 100% DMSO prior to addition to assay buffer; read-out: calculated IC50
Reported Metric: IC50 (nM)
Answers are plain numbers, in nM.

Problem: Look up IC50 with canine TRPM8 (Canis lupus familiaris) for this molecule: `CN(c1nc2ccccc2n1C)S(=O)(=O)c1ccccc1`
Result: 94

----------
# Study System: canine TRPM8 (Canis lupus familiaris)
# Construct: expressed in transfected cells
# Method Notes: In Vitro Canine TRPM8 Functional Assay (icilin-induced intracellular Ca2+, FLIPR/FDSS)
# Assay type: cell-based
# Condition Label: HEK293, 0.2 μM compound; HEK293 cells stably expressing canine TRPM8; icilin activation; read-out: % Inh @ 0.2 μM
Reported Metric: inhibition at 0.2 µM (%)
Numbers only, in %.

Reference set, count: 3
Problem: Look up inhibition at 0.2 µM with canine TRPM8 (Canis lupus familiaris) for this compound: `Cn1c(N(c2ccc(Cl)cc2)S(=O)(=O)c2ccccc2)nc2ccccc21`
Result: 94

Problem: Look up inhibition at 0.2 µM with canine TRPM8 (Canis lupus familiaris) for this compound: `Cn1c(N(Cc2ccc(F)c(Cl)c2)S(=O)(=O)c2ccccc2)nc2ccccc21`
Result: 101

Problem: Look up inhibition at 0.2 µM with canine TRPM8 (Canis lupus familiaris) for this compound: `Cn1c(N(Cc2ccccc2)S(=O)(=O)c2ccccc2)nc2ccccc21`
Result: 101

Could you tell me inhibition at 0.2 µM for each of these compounds? They are listed below.
1. Cn1c(N(Cc2ccc(F)cc2)S(=O)(=O)c2ccccc2)nc2ccccc21
2. Cc1cc2nc(N(Cc3ccc(OC(F)(F)F)cc3)S(=O)(=O)c3ccccc3)n(C)c2cc1C
3. CC(C)n1c(N(Cc2ccc(C(F)(F)F)c(F)c2)S(=O)(=O)c2ccccc2)nc2cc(Cl)ccc21
4. Cc1ccc(S(=O)(=O)N(Cc2ccc(F)c(C(F)(F)F)c2)c2nc3ccccc3n2C)cc1
5. O=S(=O)(c1ccccc1)N(Cc1ccc(OC(F)(F)F)cc1)c1nc2ccccc2n1CC1CC1
6. Cn1c(N(Cc2ccc(OC(F)(F)F)cc2)S(=O)(=O)c2ccc(C(F)(F)F)cc2)nc2ccccc21
7. Cn1c(N(Cc2ccc(C(F)(F)F)cc2)S(=O)(=O)c2ccc(F)cc2)nc2ccccc21
8. Cn1c(N(Cc2ccc(C(F)(F)F)c(F)c2)S(=O)(=O)c2ccccc2)nc2ccccc21

Result:
101
99
96
106
101
101
95
102

Could you tell me inhibition at 0.2 µM for each of these compounds? They are listed below.
1. Cn1c(N(Cc2ccc(F)c(C(F)(F)F)c2)S(C)(=O)=O)nc2ccccc21
2. Cn1c(N(Cc2ccc(C(F)(F)F)c(F)c2)S(=O)(=O)c2ccccc2)nc2cc(F)ccc21
3. Cn1c(N(Cc2cc(C(F)(F)F)ccc2F)S(=O)(=O)c2ccccc2)nc2ccccc21
4. CC(C)Cn1c(N(Cc2ccc(C(F)(F)F)c(F)c2)S(=O)(=O)c2ccccc2)nc2ccccc21
5. CCn1c(N(Cc2ccc(C(F)(F)F)c(F)c2)S(=O)(=O)c2ccccc2)nc2cc(F)ccc21

Result:
1: 99; 2: 99; 3: 102; 4: 82; 5: 100

----------
# Study System: canine TRPM8 (Canis lupus familiaris)
# Construct: expressed in transfected cells
# Method Notes: In Vitro Canine TRPM8 Functional Assay (icilin-induced intracellular Ca2+, FLIPR/FDSS)
# Format: cell-based
# Condition Label: HEK293 cells stably expressing canine TRPM8; icilin at approx. 80% maximal response; eight-point concentration-response; read-out: IC50
Reported Metric: IC50 (nM)
One number for each entry, in nM.

Problem: Look up IC50 with canine TRPM8 (Canis lupus familiaris) for this compound: `O=S(=O)(c1ccccc1)N(Cc1ccc(OC(F)(F)F)cc1)c1nc2cccc3c2n1CCO3`
Result: 3.4

Problem: Look up IC50 with canine TRPM8 (Canis lupus familiaris) for this compound: `Cn1c(N(Cc2ccc(C(F)(F)F)cc2)S(=O)(=O)c2ccc(Cl)cc2)nc2ccccc21`
Result: 9

Others:
Problem: Look up IC50 with canine TRPM8 (Canis lupus familiaris) for this compound: `O=S(=O)(c1ccccc1)N(Cc1ccc(OC(F)(F)F)cc1)c1nc2ccccc2n1CC1CC1`
Result: 26

----------
# Study System: canine TRPM8 (Canis lupus familiaris, UniProt Q1A7N1)
# Construct: expressed in transfected cells
# Method Notes: In Vitro Canine TRPM8 Functional Assay (icilin-induced intracellular Ca2+, FLIPR/FDSS)
# Type: cell-based
# Condition Label: HEK293, 0.2 μM compound; HEK293 cells stably expressing canine TRPM8; icilin activation; read-out: % Inh @ 0.2 μM
Reported Metric: inhibition at 0.2 µM (%)
Answers are plain numbers, in %.

Reference set, count: 6
Problem: inhibition at 0.2 µM lookup needed for `Cc1ccc2nc(N(Cc3ccc(OC(F)(F)F)cc3)S(=O)(=O)c3ccccc3)n(C)c2c1` , thanks.
Result: 98

Problem: inhibition at 0.2 µM lookup needed for `Cn1c(N(Cc2ccc(C(F)(F)F)cc2)S(=O)(=O)c2ccc(Cl)cc2)nc2ccccc21` , thanks.
Result: 102

Problem: inhibition at 0.2 µM lookup needed for `CC(C)Cn1c(N(Cc2ccc(OC(F)(F)F)cc2)S(=O)(=O)c2ccccc2)nc2ccccc21` , thanks.
Result: 81

Problem: inhibition at 0.2 µM lookup needed for `CCCCN(c1nc2ccccc2n1Cc1ccccc1)S(=O)(=O)c1ccccc1` , thanks.
Result: 19

Problem: inhibition at 0.2 µM lookup needed for `CCCCN(c1nc2ccccc2n1CCO)S(=O)(=O)c1ccccc1` , thanks.
Result: 11

Problem: inhibition at 0.2 µM lookup needed for `Cn1c(N(Cc2cccc(OC(F)(F)F)c2)S(=O)(=O)c2ccccc2)nc2ccccc21` , thanks.
Result: 101

Could you tell me inhibition at 0.2 µM for each of these compounds? They are listed below.
1. Cn1c(N(Cc2ccc(C(F)(F)F)c(F)c2)S(=O)(=O)c2ccc(C(F)(F)F)cc2)nc2ccccc21
2. CCn1c(N(Cc2ccc(OC(F)(F)F)cc2)S(=O)(=O)c2ccccc2)nc2ccccc21

Result:
[101, 95]

Provenance of the data: patent US8242157B2
